Protocol Text: Human Liver Microsomal Stability (Test C)
Format: in vitro ADME
Run Parameters: human, liver microsomes
Measured log10 of microsomal CLint accompanies every entry in the list below.
Record value = log10 of microsomal CLint given in µL/min/mg.

// solved cases for log10 of microsomal CLint follow
Compound: COc1cc(C#N)c(O[C@H]2CC[C@@](C)(C(=O)O)CC2)cc1C(=O)N[C@@H]1[C@H]2CC[C@H](C2)[C@@H]1C(=O)NCC1(F)CCC1
log10 of microsomal CLint: 0.95
--
Compound: COc1cc(F)c(-c2cccc(C(=O)O)c2)cc1C(=O)N[C@H]1[C@@H](C(=O)Nc2cccc(S(=O)(=O)C(F)(F)F)c2)[C@@H]2C=C[C@H]1C2 (racemic) [Example 225]
log10 of microsomal CLint: 0.82

Record summary for COc1cc(F)c(O[C@H]2CC[C@@](C)(C(=O)O)CC2)cc1C(=O)N[C@@H]1[C@H]2CC[C@H](C2)[C@@H]1C(=O)NC12CC(F)(C1)C2 : reported log10 of microsomal CLint = 1.30

Per the records, this compound ( COc1cc(F)c(O[C@H]2CC[C@@H](C(=O)O)CC2)cc1C(=O)N[C@@H]1[C@H]2CC[C@H](C2)[C@@H]1C(=O)Nc1cccc(C2CC2)c1 ) has log10 of microsomal CLint equal to 1.36

Please fill in: log10 of microsomal CLint reported for COc1cc(F)c(O[C@H]2CC[C@@](CC#N)(C(=O)O)CC2)cc1C(=O)N[C@@H]1[C@H]2CC[C@H](C2)[C@@H]1C(=O)NCC1(C)CCC1 = 1.11

Entry COc1cc(F)c(O[C@H]2CC[C@@](C)(C(=O)O)CC2)cc1C(=O)N[C@@H]1[C@H]2CC[C@H](C2)[C@@H]1C(=O)NC(C(C)C)C(C)C , log10 of microsomal CLint reported as 2.28

// log10 of microsomal CLint value for COc1cc(F)c(O[C@H]2CC[C@@H](C(=O)O)CC2)cc1C(=O)N[C@@H]1[C@H]2CC[C@H](C2)[C@@H]1C(=O)Nc1ccnc(C(F)(F)F)c1 : 1.36

log10 of microsomal CLint reading for COc1cc(C#N)c(O[C@H]2CC[C@@](C)(C(=O)O)CC2)cc1C(=O)N[C@@H]1[C@H]2CC[C@H](C2)[C@@H]1C(=O)NCC1(O)CCCCCC1 : 1.04

Record COc1cc(F)c(OCCCCCCC(=O)O)cc1C(=O)N[C@@H]1[C@H]2CC[C@H](C2)[C@@H]1C(=O)Nc1cccc(S(=O)(=O)C(F)(F)F)c1 , field log10 of microsomal CLint: 1.85

In plain terms, COc1cc(F)c(O[C@H]2CC[C@@H](C(=O)O)CC2)cc1C(=O)N[C@@H]1[C@H]2CC[C@H](C2)[C@@H]1C(=O)Nc1nccc(C(F)(F)F)n1 has a documented log10 of microsomal CLint of 1.00

For reference, reported log10 of microsomal CLint for COc1cc(F)c(O[C@H]2CC[C@@](C)(C(=O)O)CC2)cc1C(=O)Nc1cc(C)c(C)cc1C(=O)NCC1(C)CCC1 stands at 0.81

The reported value for COc1cc(F)c(O[C@H]2CC[C@@H](C(=O)O)CC2)cc1C(=O)N[C@@H]1[C@H]2CC[C@H](C2)[C@@H]1C(=O)Nc1cc(C(F)(F)F)ccc1Cl in terms of log10 of microsomal CLint is 1.49

For reference, reported log10 of microsomal CLint for COc1cc(F)c(O[C@H]2C[C@@H](C(=O)O)C2)cc1C(=O)NC1[C@H]2CC[C@H](C2)[C@@H]1C(=O)Nc1cccc(S(=O)(=O)C(F)(F)F)c1 (stereo partly shown) stands at 1.26

Form field log10 of microsomal CLint, entry COc1cc(C#N)c(O[C@H]2CC[C@@](C)(C(=O)O)CC2)cc1C(=O)N[C@@H]1[C@H]2CC[C@H](C2)[C@@H]1C(=O)NCC1CC(C)(C)C1 : 1.30

Entry under test: COc1cc(F)c(O[C@H]2CC[C@H](NS(C)(=O)=O)CC2)cc1C(=O)N[C@@H]1[C@H]2CC[C@H](C2)[C@@H]1C(=O)Nc1cccc(S(=O)(=O)C(F)(F)F)c1 . Its log10 of microsomal CLint was 2.48
